I'd appreciate it if you could supply Incidence, number of mice with lung adenoma values for the items below.
system: lung adenoma induced by benzo(a)pyrene; assay: 9-weeks medium-term anticarcinogenicity test of ginsenosides (Experiment 1); format: in vivo, NIH(GP) mice; settings: Sex M; BP 0.5 mg/head + ginsenoside 80 μg/ml; BP line = carcinogen alone
Field format: numeric only.

[Q] Fill blank: measured Incidence, number of mice with lung adenoma of the compound CC(C)=CCC[C@](C)(O)[C@H]1CC[C@]2(C)[C@@H]1[C@H](O)C[C@@H]1[C@@]3(C)CC[C@H](O[C@@H]4O[C@H](CO)[C@@H](O)[C@H](O)[C@H]4O)C(C)(C)[C@@H]3CC[C@]12C [Ginsenoside Rh2, ginsenoside Rh2] is ____.
[A] 13

[Q] Can you check CC(C)=CC/C=C(\C)[C@H]1CC[C@]2(C)[C@@H]1[C@H](O)C[C@@H]1[C@@]3(C)CC[C@H](O[C@@H]4O[C@H](CO)[C@@H](O)[C@H](O)[C@H]4O[C@@H]4O[C@H](CO)[C@@H](O)[C@H](O)[C@H]4O)C(C)(C)[C@@H]3CC[C@]12C [Ginsenoside Rg5, ginsenoside Rg5] next?
[A] 13

* * *

Test system: lung adenoma induced by benzo(a)pyrene
Experiment: 9-weeks medium-term anticarcinogenicity test of ginsenosides (Experiment 1)
Type: in vivo, NIH(GP) mice
Conditions: Sex M; BP 0.5 mg/head + ginsenoside 80 μg/ml; BP line = carcinogen alone
From the text: 1) Experimental animal: In this experiment newborn non-inbred strain NIH(GP) mice were used. Each experimental animal was in a breeding chamber maintained at constant temperature and humidity and, after weaning, given a solid feed prepared according to the NIH-7 open formula. […] 5) Monitoring and sacrifice of experimental animals: The appearance of mice was monitored every time at which the feed and drinking water were changed, beginning from weaning at the 3th week after birth. […]
outcome_measure: Incidence, number of mice with lung adenoma
Answer as a number with no unit attached.

[Q] Using the record for c1ccc2c(c1)cc1ccc3cccc4ccc2c1c34 [Benzo(a)pyrene (BP), benzo(a)pyrene, reference compound] , report its Incidence, number of mice with lung adenoma.
[A] 14

[Q] Now give it for CC(C)=CCC[C@](C)(O)[C@H]1CC[C@]2(C)[C@@H]1[C@H](O)C[C@@H]1[C@@]3(C)CC[C@H](O[C@@H]4O[C@H](CO)[C@@H](O)[C@H](O)[C@H]4O[C@@H]4O[C@H](CO)[C@@H](O)[C@H](O)[C@H]4O)C(C)(C)[C@@H]3CC[C@]12C [Ginsenoside Rg3, ginsenoside Rg3] too.
[A] 13

[Q] Try the molecule CC(C)=CCC[C@](C)(O)[C@H]1CC[C@]2(C)[C@@H]1[C@H](O)C[C@@H]1[C@@]3(C)CC[C@H](O)C(C)(C)[C@@H]3[C@@H](O[C@@H]3O[C@H](CO)[C@@H](O)[C@H](O)[C@H]3O)C[C@]12C [Ginsenoside Rh1, ginsenoside Rh1, reference compound]
[A] 15
